Entry source: ChEMBL document CHEMBL5620377

Assay: Half life in human
Type: ADME
property: half-life (h)
State the answer as a number, implicitly in h.

"Cc1[nH]c(/C=C2\C(=O)Nc3ccc(F)cc32)c(C)c1C(=O)N[C@H]1CCN(C(=O)N(C)C)C1" yielded half-life of 6.5

* * *

Target: Platelet-derived growth factor receptor beta (Homo sapiens)
Sequence (P09619 whole entry): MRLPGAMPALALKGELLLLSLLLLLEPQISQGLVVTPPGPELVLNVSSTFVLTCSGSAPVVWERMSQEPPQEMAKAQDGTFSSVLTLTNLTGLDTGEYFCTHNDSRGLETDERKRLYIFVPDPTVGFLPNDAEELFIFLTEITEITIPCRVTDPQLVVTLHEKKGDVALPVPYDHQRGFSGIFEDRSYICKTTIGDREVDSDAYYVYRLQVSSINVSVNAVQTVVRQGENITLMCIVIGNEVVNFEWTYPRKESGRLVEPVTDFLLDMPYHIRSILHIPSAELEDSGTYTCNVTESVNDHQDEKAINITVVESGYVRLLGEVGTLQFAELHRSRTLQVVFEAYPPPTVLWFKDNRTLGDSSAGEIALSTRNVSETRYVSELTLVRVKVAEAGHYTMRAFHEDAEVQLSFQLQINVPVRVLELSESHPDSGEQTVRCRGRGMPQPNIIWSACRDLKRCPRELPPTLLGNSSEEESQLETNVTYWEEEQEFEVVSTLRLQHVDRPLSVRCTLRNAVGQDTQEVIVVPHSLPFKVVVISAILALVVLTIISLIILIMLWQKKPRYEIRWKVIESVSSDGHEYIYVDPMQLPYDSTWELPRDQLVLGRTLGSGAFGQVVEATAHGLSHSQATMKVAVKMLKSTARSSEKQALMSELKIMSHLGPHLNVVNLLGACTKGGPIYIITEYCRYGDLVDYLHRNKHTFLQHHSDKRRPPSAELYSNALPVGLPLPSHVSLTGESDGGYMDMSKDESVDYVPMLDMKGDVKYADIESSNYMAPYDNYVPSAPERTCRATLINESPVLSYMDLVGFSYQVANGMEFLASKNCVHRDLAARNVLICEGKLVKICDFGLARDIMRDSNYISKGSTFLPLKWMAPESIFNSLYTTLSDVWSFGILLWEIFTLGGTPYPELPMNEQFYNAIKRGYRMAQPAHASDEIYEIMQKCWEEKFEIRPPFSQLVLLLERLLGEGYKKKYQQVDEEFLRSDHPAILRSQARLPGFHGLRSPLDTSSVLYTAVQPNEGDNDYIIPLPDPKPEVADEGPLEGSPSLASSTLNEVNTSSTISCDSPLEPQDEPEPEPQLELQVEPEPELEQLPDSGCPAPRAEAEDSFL
Experiment: Inhibition of recombinant human PDGFRbeta using Poly (Glu,Tyr) 4:1 as substrate incubated for 1 hr by ELISA
property: IC50 (nM)
State the answer as a number, implicitly in nM.

COc1cc2c(Oc3ccc4[nH]c(C)cc4c3F)ccnc2cc1OCC1(N)CC1 [CATEQUENTINIB] yielded IC50 of 115
